# assay_overview: Plasma concentration after intragastric administration to cynomolgus monkey (Test Example 2)
# Assay type: in vivo
# experimental_conditions: male cynomolgus monkey, 3 mg/kg intragastric in 0.5% MC, plasma, LC-MS/MS, noncompartment model
So basically, if AUC, area under the plasma concentration versus time curve comes in under 10000 ng·h/mL it's 1 (yes), and if it's 10000 ng·h/mL or more it's 0 (no).

[Q] Does this compound meet the criterion AUC, area under the plasma concentration versus time curve < 10000 ng·h/mL? Cc1c(C(=O)Nc2ccc(S(C)(=O)=O)cc2)cc(C[C@H](C)O)n1-c1ccc(F)cc1OC(F)F (single isomer, unassigned) [Example 9 - isomer A]
[A] 0 (no)

###

# target_or_test_system: UniProtKB P08235
# assay_overview: GAL4-hMR-LBD luciferase reporter assay in HEK293 cells with 1 nM aldosterone (Test Example 1)
# experimental_conditions: concentration showing Imax/2; HEK293, GAL4-hMR-LBD, 1 nM aldosterone, overnight; read-out: ICmax50
Readings of pIC50 for the listed compounds
Just the number, please; pIC50 means minus log10 of the concentration in mol/L.

Study these solved cases before continuing.
compound	pIC50
Cc1c(C(=O)Nc2ccc(S(C)(=O)=O)cc2)cc(C[C@H](C)O)n1-c1ccc(Cl)cc1-c1ccc(F)cc1 (single isomer, unassigned) [Example 50 - isomer B]	8.92
Cc1c(C(=O)Nc2ccc(S(C)(=O)=O)cc2)cc(CCO)n1-c1ccc(Cl)cc1C(F)(F)F [Example 1]	7.96
Cc1c(C(=O)Nc2ccc(S(C)(=O)=O)cc2)cc(C[C@H](C)O)n1-c1ccc(Cl)cc1OC(F)F (single isomer, unassigned) [Example 11 - isomer A]	8.14

[Q] Any idea what pIC50 was measured for Cc1c(C(=O)Nc2ccc(S(C)(=O)=O)cc2)cc(CCF)n1-c1ccc(F)cc1OC(F)F (single isomer, unassigned) [Example 54 - isomer A] ?
[A] 8.19

[Q] Consider next the compound Cc1c(C(=O)Nc2ccc(S(C)(=O)=O)cc2)cc(C[C@H](C)O)n1-c1ccc(Cl)cc1Oc1ccc(F)cc1 [Example 45] in the same way.
[A] 8.15

###

# target_or_test_system: human mineralocorticoid receptor (hMR) (Homo sapiens)
# Sequence (P08235 726-964 limits assumed): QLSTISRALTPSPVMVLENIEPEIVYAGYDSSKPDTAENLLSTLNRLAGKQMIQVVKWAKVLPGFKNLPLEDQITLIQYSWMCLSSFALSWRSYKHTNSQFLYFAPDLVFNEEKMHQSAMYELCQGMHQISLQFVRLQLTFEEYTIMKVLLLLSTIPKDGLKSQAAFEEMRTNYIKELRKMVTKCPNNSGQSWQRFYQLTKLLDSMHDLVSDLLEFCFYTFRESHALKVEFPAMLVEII
# assay_overview: GAL4-hMR-LBD luciferase reporter assay in HEK293 cells with 1 nM aldosterone (Test Example 1)
# experimental_conditions: concentration showing Imax/2; HEK293, GAL4-hMR-LBD, 1 nM aldosterone, overnight; read-out: ICmax50
Readings of pIC50 for the listed compounds
Just the number, please; pIC50 means minus log10 of the concentration in mol/L.

Study these solved cases before continuing.
compound	target_or_test_system	observed
CCc1c(C(=O)Nc2ccc(S(C)(=O)=O)cc2)cc(C[C@H](C)O)n1-c1ccc(F)cc1Cl [Example 44]	human mineralocorticoid receptor (hMR) (Homo sapiens)	7.62
Cc1c(C(=O)Nc2ccc(S(C)(=O)=O)cc2)cc(C[C@H](C)O)n1-c1ccc(F)cc1Cl (single isomer, unassigned) [Example 40 - isomer A]	human mineralocorticoid receptor (hMR) (Homo sapiens)	8.02
Cc1c(C(=O)Nc2ccc(S(C)(=O)=O)cc2)cc(C[C@H](C)O)n1-c1ccc(F)cc1OC(F)(F)F [Example 16]	human mineralocorticoid receptor (hMR) (Homo sapiens)	8.11

[Q] Any idea what pIC50 was measured for Cc1c(C(=O)Nc2ccc(S(C)(=O)=O)cc2)cc(C[C@H](C)O)n1-c1ccc(F)cc1C(F)(F)F (single isomer, unassigned) [Example 5 - isomer A] ?
[A] 8.47

[Q] Consider next the compound Cc1c(C(=O)Nc2ccc(S(C)(=O)=O)cc2)cc(C[C@H](C)O)n1-c1ccc(Cl)cc1OC(F)(F)F [Example 42] in the same way.
[A] 8.32

###

# target_or_test_system: human mineralocorticoid receptor (hMR) (Homo sapiens, UniProt P08235)
# assay_overview: GAL4-hMR-LBD luciferase reporter assay in HEK293 cells with 1 nM aldosterone (Test Example 1)
# experimental_conditions: concentration showing Imax/2; HEK293, GAL4-hMR-LBD, 1 nM aldosterone, overnight; read-out: ICmax50
Readings of IC50 for the listed compounds
// note: answer is a bare numeric in nM

compound	unit_descriptor	observed
Cc1c(C(=O)Nc2ccc(S(C)(=O)=O)cc2)cc(C[C@H](C)O)n1-c1ccc(Cl)cc1C(F)(F)F (single isomer, unassigned) [Example 6 - isomer A]	nM	3.1
Cc1c(C(=O)Nc2ccc(S(C)(=O)=O)cc2)cc(C[C@H](C)O)n1-c1ccc(F)cc1OC(F)F (single isomer, unassigned) [Example 9 - isomer A]	nM	18
Cc1cc(Cl)ccc1-n1c(CCF)cc(C(=O)Nc2ccc(S(C)(=O)=O)cc2)c1C [Example 51]	nM	19

Would you kindly look at the next entry?
[Q] What reported IC50 corresponds to Cc1cc(C(=O)Nc2ccc(S(C)(=O)=O)cc2)c(C)n1-c1ccc(F)cc1C(F)(F)F [Reference compound B, reference compound] on human mineralocorticoid receptor (hMR) (Homo sapiens, UniProt P08235)?
[A] 12

###

# assay_overview: Plasma concentration after intragastric administration to cynomolgus monkey (Test Example 2)
# Assay type: in vivo
# experimental_conditions: po; male cynomolgus monkey, 3 mg/kg intragastric in 0.5% MC, plasma, LC-MS/MS; read-out: Cmax, maximum concentration
So basically, if Cmax comes in under 1000 ng/mL it's satisfied, and if it's 1000 ng/mL or more it's not satisfied.

These solved cases illustrate the format of a correct answer.
compound	class_label
Cc1c(C(=O)Nc2ccc(S(C)(=O)=O)cc2)cc(C[C@H](C)O)n1-c1ccc(Cl)cc1Cl (single isomer, unassigned) [Example 43 - isomer A]	not satisfied
Cc1cc(Cl)ccc1-n1c(CCF)cc(C(=O)Nc2ccc(S(C)(=O)=O)cc2)c1C (single isomer, unassigned) [Example 51 - isomer A]	satisfied

Consider now this further compound.
[Q] Does this compound meet the criterion Cmax < 1000 ng/mL? Cc1c(C(=O)Nc2ccc(S(C)(=O)=O)cc2)cc(C[C@H](C)O)n1-c1ccc(Cl)cc1C(F)(F)F (single isomer, unassigned) [Example 6 - isomer A]
[A] not satisfied

###

# target_or_test_system: UniProt P08235
# assay_overview: GAL4-hMR-LBD luciferase reporter assay in HEK293 cells with 1 nM aldosterone (Test Example 1)
# experimental_conditions: concentration showing Imax/2; HEK293, GAL4-hMR-LBD, 1 nM aldosterone, overnight; read-out: ICmax50
Readings of IC50 for the listed compounds

Study these solved cases before continuing.
compound	IC50
Cc1c(C(=O)Nc2ccc(S(C)(=O)=O)cc2)cc(C[C@H](C)O)n1-c1ccc(Cl)cc1Cl [Example 43]	40 nM
Cc1cc(NC(=O)c2cc(C[C@H](C)O)n(-c3ccc(F)cc3OC(F)F)c2C)ccc1S(C)(=O)=O (single isomer, unassigned) [Example 22 - isomer B]	> 1000 nM

Would you kindly look at the next entry?
[Q] Any idea what IC50 was measured for Cc1c(C(=O)Nc2ccc(S(C)(=O)=O)cc2)cc(C[C@H](C)O)n1-c1ccc(Cl)cc1C(F)(F)F (single isomer, unassigned) [Example 6 - isomer B] ?
[A] > 1000 nM

###

# target_or_test_system: human mineralocorticoid receptor (hMR) (Homo sapiens)
# Construct: expressed in transfected cells; host or cells: HEK293
# assay_overview: GAL4-hMR-LBD luciferase reporter assay in HEK293 cells with 1 nM aldosterone (Test Example 1)
# Type: cell-based
# experimental_conditions: concentration showing Imax/2; HEK293, GAL4-hMR-LBD, 1 nM aldosterone, overnight; read-out: ICmax50
quantity_name: pIC50
Just the number, please; pIC50 means minus log10 of the concentration in mol/L.

Study these solved cases before continuing.
compound	target_or_test_system	pIC50
Cc1c(C(=O)Nc2ccc(S(C)(=O)=O)cc2)cc(CCF)n1-c1ccc(F)cc1OC(F)F [Example 54]	human mineralocorticoid receptor (hMR) (Homo sapiens)	7.85
Cc1c(C(=O)Nc2ccc(S(C)(=O)=O)cc2)cc(C[C@H](C)O)n1-c1ccc(Cl)cc1Oc1ccc(F)cc1 (single isomer, unassigned) [Example 45 - isomer A]	human mineralocorticoid receptor (hMR) (Homo sapiens)	8.72
Cc1c(C(=O)Nc2ccc(S(C)(=O)=O)cc2)cc(C[C@H](C)O)n1-c1ccc(Cl)cc1OC(F)F [Example 11]	human mineralocorticoid receptor (hMR) (Homo sapiens)	7.89
Cc1c(C(=O)Nc2ccc(S(C)(=O)=O)cc2)cc(C[C@H](C)O)n1-c1ccc(F)cc1OC(F)F [Example 9]	human mineralocorticoid receptor (hMR) (Homo sapiens)	7.39
Cc1cc(C(=O)Nc2ccc(S(C)(=O)=O)cc2)c(C)n1-c1ccccc1C(F)(F)F [Reference compound A, reference compound]	human mineralocorticoid receptor (hMR) (Homo sapiens)	7.85

Would you kindly look at the next entry?
[Q] What reported pIC50 corresponds to Cc1c(C(=O)Nc2ccc(S(C)(=O)=O)cc2)cc(CCO)n1-c1ccc(F)cc1Cl (single isomer, unassigned) [Example 3 - isomer A] on human mineralocorticoid receptor (hMR) (Homo sapiens)?
[A] 7.68
